- assayRemarks: Measurement of LogP values by HPLC on reversed phase columns (EEC directive 79/831 Annex V.A8)
- Type: physicochemical
Marks after values point to notes of the source that are not given here.
experimentalEndpoint: LogP

- CCOc1c(N)nsc1C(=O)NC1CCCCC1: 2.14[a]
- Nc1nsc(C(=O)NCC2(F)CCC2)c1Cl: 1.50[a]
- COc1ccc(CNc2nsc(C(=O)NCc3ccccc3F)c2Cl)cc1: 3.46[a]
- Nc1nsc(C(=O)NCC2CCOCC2)c1Cl: 0.90[a]
- CC(=O)Nc1nsc(C(=O)NCc2ccc(Cl)cc2)c1Cl: 2.03[a]
- CCC(C)CNC(=S)c1snc(N)c1Cl (stereo not drawn): 2.87[a]

* * *

- assayRemarks: Measurement of LogP values by HPLC on reversed phase columns (EEC directive 79/831 Annex V.A8)
- Format: physicochemical
Marks after values point to notes of the source that are not given here.
experimentalEndpoint: LogP

* Nc1nsc(C(=O)NC2CC2)c1Cl | 0.84[a]
* COc1ccc(CNc2nsc(C(=O)NCc3cc(C)ccc3C(C)C)c2Cl)cc1 | 4.80[a]
* Nc1nsc(C(=O)Nc2ccc(F)cc2)c1Cl | 2.04[a]
* Cc1ccc(NC(=O)c2snc(N)c2Cl)c(C)c1 | 2.44[a]
* Nc1cc(C(=O)NCCC2CCCCC2)sn1 | 2.23[a]
* Nc1nsc(C(=O)N(Cc2ccccc2)C2CC2)c1Cl | 2.41[a]
* COc1ccc(CNc2nsc(C(=O)NC(Cc3ccccc3)C3CCCCC3)c2Cl)cc1 (stereo not shown) | 5.10[b]
* COc1ccc(CNc2nsc(C(=O)NC(C)C3=NOCC3)c2Cl)cc1 (stereo not shown) | 2.56[a]
* O=C(NCc1ccccc1F)c1snc(Nc2ccccc2)c1Cl | 3.63[a]
* O=C(NCc1ccc(F)cc1)c1cc(N(Cc2ccccc2)Cc2ccccc2)ns1 | 4.36[a]

* * *

The following compounds are shown together with reported LogP values.
- assayRemarks: Measurement of LogP values by HPLC on reversed phase columns (EEC directive 79/831 Annex V.A8)
- Type: physicochemical
Marks after values point to notes of the source that are not given here.
experimentalEndpoint: LogP

* Cc1c(N)nsc1C(=O)NCc1c(F)cc(F)cc1F | 1.69[a]
* CCC(c1cc(Cl)cc(Cl)c1)N(C(=O)c1snc(NCc2ccc(OC)cc2)c1Cl)C1CC1 (stereo not shown) | 5.81[a]
* Nc1nsc(C(=O)Nc2cccc3ccccc23)c1Cl | 2.39[a]
* C[C@H](NC(=S)c1snc(N)c1Cl)C1CCCCC1 | 3.85[a]
* Cc1cccc(C)c1NC(=O)c1snc(N)c1Cl | 2.05[a]
* Nc1nsc(C(=O)NCC2CCC(F)(F)CC2)c1F | 1.66[a]
* COc1ccc(CNc2nsc(C(=O)NC3CCCC3c3ccccc3)c2Cl)cc1 (stereo not shown) | 4.41[a]
* COc1ccc(CNC(=O)c2snc(N)c2Cl)cc1O | 1.03[a]
* CC1(CNC(=O)c2snc(N)c2Cl)CCCCC1 | 2.84[a]
* COc1ccc(CNc2nsc(C(=O)N(C3CC3)C(C)c3cccc(C(F)(F)F)c3)c2Cl)cc1 (stereo not shown) | 4.91[a]

* * *

- assayRemarks: Measurement of LogP values by HPLC on reversed phase columns (EEC directive 79/831 Annex V.A8)
- Assay type: physicochemical
Reported LogP [a] values for the following compounds.
experimentalEndpoint: LogP [a]

* Cc1ccc(S(C)=Nc2nsc(C(=O)NCc3c(F)cc(F)cc3F)c2F)cc1 (centres unmarked) [II-080] | 2.63^[a]
* CCCS(CC)=Nc1nsc(C(=O)NCc2ccc(F)c(F)c2F)c1F (centres unmarked) [II-104] | 1.96^[a]
* O=C(NCc1c(F)cc(F)cc1F)c1snc(N=S2CCCC2)c1F [II-081] | 1.39^[a]
* CCOC(=O)c1snc(NC(=O)C(C)(C)C)c1Cl [E-VII-018] | 2.48^[a]
* CS(C)=Nc1nsc(C(=O)NCC2CCCCC2)c1Cl [II-032] | 1.82^[a]

* * *

LogP [a] listing for selected compounds.
- assayRemarks: Measurement of LogP values by HPLC on reversed phase columns (EEC directive 79/831 Annex V.A8)
- Type: physicochemical
experimentalEndpoint: LogP [a]

- CCS(CC)=Nc1nsc(C(=O)NCC2CCCCC2)c1Cl: 2.00^[a]
- O=C(NCc1cc(F)c(F)cc1F)c1snc(N=S2CCCC2)c1F: 1.53^[a]
- COc1ccc(CN(Cc2ccccc2)c2nscc2Cl)cc1: 5.03^[a]
- O=C(NCc1ccc(F)c(F)c1F)c1snc(N=S2CCCC2)c1F: 1.55^[a]
- CN(C)C=Nc1nsc(C(=O)NCc2ccc(Cl)cc2)c1Cl: 2.41^[a]
- CC(NC(=O)c1snc(Cl)c1Cl)C1CCCO1 (centres unmarked): 2.72
- CC(C)(C)C(=O)Nc1nscc1Cl: 1.55^[a]
- Nc1nsc(C(=O)N2CCc3c(Cl)ccc(Cl)c3C2)c1Cl: 2.88
- O=C(NCC1CCCO1)c1snc(Cl)c1Cl (centres unmarked): 2.20^[a]
- COc1ccc(CNc2nsc(C(=O)NC(C)Cc3ccc(Cl)cc3)c2Cl)cc1 (centres unmarked): 4.32^[a]
- COc1ccc(CNc2nsc(C(=O)OC(C)C)c2Cl)cc1: 4.36^[a]
- CC1CCC(C(C)C)C(NC(=O)c2snc(Cl)c2Cl)C1 (centres unmarked): 5.72
- COc1ccc(CNc2nsc(C(=O)N3CCCc4cc(Cl)ccc43)c2Cl)cc1: 4.37^[a]
- CC(C)(C)OC(=O)Nc1nsc(C(=O)O)c1Cl: 1.35^[a]
- O=C(NC(CCc1ccccc1)C1CCC1)c1snc(Cl)c1Cl (centres unmarked): 5.04
- O=C(NCC1CCCCO1)c1snc(Cl)c1Cl (centres unmarked): 2.87^[a]
- CC(Cc1ccc(Cl)cc1)NC(=O)c1snc(N)c1Cl (centres unmarked): 2.68^[a]
- Nc1nsc(C(=O)N2CCCc3cc(Cl)ccc32)c1Cl: 2.66
- O=C(NCC1CCCCC1)c1snc(N=S(Cc2ccccc2)Cc2ccccc2)c1Cl: 4.38^[a]
- C[C@H](NC(=O)c1snc(N=CN2CCCC2)c1Cl)C1CCCCC1: 2.73^[a]
- COc1ccc(CNc2nsc(C(=O)N3CCc4cc(F)ccc4C3)c2Cl)cc1: 3.73^[a]
- O=C(Nc1nsc(C(=O)O)c1Cl)c1ccc(F)cc1: 1.02^[a]
- CCCS(C)=Nc1nsc(C(=O)NCC2CCCCC2)c1Cl (centres unmarked): 2.23^[a]
- O=C(NCc1ccc(Cl)cc1)c1snc(N=CN2CCCC2)c1Cl: 2.17^[a]
- O=C(O)c1snc(N(Cc2ccccc2)Cc2ccccc2)c1Cl: 3.75^[a]
- O=C(NCc1cc(F)ccc1F)c1snc(Cl)c1Cl: 3.17^[a]

* * *

- assayRemarks: Measurement of LogP values by HPLC on reversed phase columns (EEC directive 79/831 Annex V.A8)
- Format: physicochemical
Marks after values point to notes of the source that are not given here.
experimentalEndpoint: LogP

- Nc1nsc(C(=O)NCC2CCCC(Cl)C2)c1Cl (stereo not drawn): 2.23[a]
- COc1c(N)nsc1C(=O)NCc1ccc(Cl)cc1: 1.98[a]
- Nc1nsc(C(=O)NCc2cc(Cl)cc(Cl)c2)c1Cl: 2.63[a]
- Nc1nsc(C(=O)NCCc2ccccc2)c1-c1ccc(F)cc1: 2.59[a]
- Nc1cc(C(=O)NCc2c(F)ccc(F)c2F)sn1: 1.51[a]
- O=C(NCc1ccccc1Cl)c1cc(N(Cc2ccccc2)Cc2ccccc2)ns1: 4.67[a]
- Nc1nsc(C(=O)NCc2ccc(Oc3ccc(F)cc3)cc2)c1Cl: 3.00[a]
- COc1ccc(CNc2nsc(C(=O)NC3CCOCC3)c2Cl)cc1: 2.50[a]
- CCCCCn1cc(CNC(=O)c2snc(NCc3ccc(OC)cc3)c2Cl)c(C)n1: 3.57[a]
- Cc1c(N)nsc1C(=O)NCc1ccc(F)c(F)c1: 1.69[a]
- COc1ccc(CNc2nsc(C(=O)N(Cc3ccc(Cl)cc3Cl)C3CC3(C)C)c2Cl)cc1 (stereo not drawn): 5.87[a]
- O=C(NCc1cc(F)cc(F)c1)c1cc(N(Cc2ccccc2)Cc2ccccc2)ns1: 4.53[a]
- Nc1nsc(C(=O)N(c2ccc(F)cc2)C2CC2)c1Cl: 2.21[a]
- COc1ccc(CNc2nsc(C(=O)NC3CCCCCC3)c2Cl)cc1: 4.27[a]
- CC1(C)CCCCC1NC(=O)c1snc(N)c1Cl (stereo not drawn): 2.66[a]
- O=C(c1cc(N(Cc2ccccc2)Cc2ccccc2)ns1)N(Cc1c(F)cccc1Cl)C1CC1: 5.54[a]
- O=C(Nc1nsc(C(=O)NCC2CCCCC2)c1Cl)c1ccccc1: 3.19[a]
- CNC(=O)c1snc(N)c1Cl: 0.32[a]
- CCC1(CNC(=O)c2snc(N)c2Cl)CCCCC1: 3.20[a]
- Nc1nsc(C(=O)NCC2CCCCC2C(F)(F)F)c1Cl (stereo not drawn) [I-1567]: 2.69[a]
- CCC(=O)N(C(=O)CC)c1nsc(C(=O)NCc2ccc(C#N)cc2)c1Cl: 2.89[a]
- CCC1CCCCC1NC(=O)c1snc(NCc2ccc(OC)cc2)c1Cl (stereo not drawn): 4.49[a]
- CC1CCCCC1NC(=O)c1snc(N)c1I (stereo not drawn): 2.14[a]
- Nc1nsc(C(=O)NCC2CCCCC2F)c1Cl (stereo not drawn): 1.97[a]
- Nc1cc(C(=O)NCc2ccc(Cl)cc2Cl)sn1: 2.11[a]
- O=C(c1cc(N(Cc2ccccc2)Cc2ccccc2)ns1)N(Cc1cc(Cl)cc(C(F)(F)F)c1)C1CC1: 6.16[a]
- Nc1cc(C(=O)N(Cc2cc(Cl)ccc2F)C2CC2)sn1: 2.49[a]
- Nc1nsc(C(=O)NCCc2ccccc2Cl)c1Cl: 2.41[a]
- COc1ccc(CNc2nsc(C(=O)Nc3cccc(F)c3)c2Cl)cc1: 3.85[a]
- CCC(C)C(C)N(C(=O)c1snc(NCc2ccc(OC)cc2)c1Cl)C1CC1 (stereo not drawn): 4.85[a]
- COc1ccc(CNc2nsc(C(=O)NC(=O)C3CCCCC3)c2Cl)cc1: 3.83[a]
- COc1ccc(CNc2nsc(C(=O)NCCc3ccccc3F)c2Cl)cc1: 3.74[a]
- Nc1nsc(C(=O)NCC2CCCCC2)c1N: 1.37[a]
- O=C(NC1CCCC2CCCCC21)c1snc(NCc2ccccc2)c1Cl (stereo not drawn): 5.23[a]
- Nc1nsc(C(=O)N(Cc2cc(Cl)cc(C(F)(F)F)c2)C2CC2)c1Cl: 3.53[a]
- COc1ccc(CNc2nsc(C(=O)NCc3cn(C(C)C)nc3C)c2Cl)cc1: 2.82[a]
- COc1ccc(CNc2nsc(C(=O)N(Cc3ccccc3C(C)C)C3CC3)c2Cl)cc1: 4.71[a]
- Nc1nsc(C(=O)Nc2ccc(Cl)cc2)c1Cl: 2.51[a]
- CCCC(c1ccccc1)N(C(=O)c1snc(NCc2ccc(OC)cc2)c1Cl)C1CC1 (stereo not drawn): 5.25[a]
- COc1ccc(CNc2nsc(C(=O)NC(C)c3ccc(C(F)(F)F)cc3)c2Cl)cc1 (stereo not drawn): 4.23[a]
- N#Cc1ccccc1CNC(=O)c1snc(N)c1Cl: 1.43[a]
- Cc1cc(F)ccc1CNC(=O)c1snc(N)c1Cl: 2.09[a]
